# IC50 per record follows
TARGET OF ASSAY: TNFα (Homo sapiens, UniProt P01375)
Sequence (P01375 77-233 limits assumed): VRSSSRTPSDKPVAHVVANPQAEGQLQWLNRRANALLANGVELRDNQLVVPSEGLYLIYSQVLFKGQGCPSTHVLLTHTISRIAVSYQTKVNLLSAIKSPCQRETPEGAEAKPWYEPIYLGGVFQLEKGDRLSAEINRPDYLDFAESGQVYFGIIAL
ASSAY METHOD TEXT: TNF-Induced HEK-Blue Assay
Assay type: cell-based
TEST CONTEXT: HEK-Blue-CD40L cells, NF-kB-driven secreted alkaline phosphatase reporter; TNFα 0.5 ng/ml; 18 h; read-out: TNF induced HEK-Blue assay IC50 value
Positions of bridges follow the written chain, without caps; N, C: chain ends. Non-standard residues stand in square brackets, D forms with d. Residues, ends and D or L forms follow the SMILES beside them. Bip(4'-NHAc) = CC(=O)Nc1ccc(-c2ccc(C[C@H](N)C(=O)O)cc2)cc1; Bip = N[C@@H](Cc1ccc(-c2ccccc2)cc1)C(=O)O; Abu(3S-NH2) = C[C@H](N)[C@H](N)C(=O)O; Cha = N[C@@H](CC1CCCCC1)C(=O)O; Sar = CNCC(=O)O
OBSERVATION TYPE: IC50

[
  {
    "MOLECULE": "CC(C)C[C@@H]1NC(=O)[C@H](CCCNC(=N)N)NC(=O)[C@H](C(C)C)NC(=O)[C@@H]2CCCN2C(=O)[C@H](C(C)C)NC(=O)[C@H](CCCNC(=N)N)NC(=O)[C@H](CC(=O)O)NC(=O)[C@@H]2CCCN2C(=O)CN(C)C(=O)[C@H](Cc2ccc(-c3ccccc3)cc2)NC(=O)[C@H](Cc2ccc(-c3ccccc3)cc2)NC(=O)[C@H](C(C)C)NC(=O)CSC[C@@H](C(=O)NCC(N)=O)NC1=O [Example 9] ({CH2CO}-V[Bip][Bip][Sar]PDRVPVRLCG-NH2; thioether N-13)",
    "EXPERIMENTAL RESULT": "200 to 2000 nM"
  },
  {
    "MOLECULE": "CC(=O)Nc1ccc(-c2ccc(C[C@@H]3NC(=O)[C@H](Cc4ccc(-c5ccccc5)cc4)NC(=O)[C@H](CC4CCCCC4)NC(=O)CSC[C@@H](C(=O)NCC(N)=O)NC(=O)[C@H](CC(C)C)NC(=O)[C@H](Cc4ccc(O)cc4)NC(=O)[C@H](C(C)C)NC(=O)[C@@H]4CCCN4C(=O)[C@H]([C@H](C)N)NC(=O)[C@@H](CCCNC(=N)N)NC(=O)[C@H](CC(=O)O)NC(=O)[C@@H]4CCCN4C(=O)CN(C)C3=O)cc2)cc1 [Example 239] ({CH2CO}-[Cha][Bip][Bip(4'-NHAc)][Sar]PD[dR][Abu(3S-NH2)]PVYLCG-NH2; thioether N-13)",
    "EXPERIMENTAL RESULT": "50 to 200 nM"
  }
]

src = patent US20250145665A1
